Here the recorded MDA tox: 50% tox. at (μM) av is given for each entry.
- Test system: MDA-MB231-luc-D3H2LN cells
- assay_protocol: Toxicity assay under normal cell culture conditions (MTS), MDA cells
- Type: cell-based, human
- conditions_used: MDA-MB231-luc-D3H2LN cells, MEM+10% FBS, 72 h incubation, MTS
outcome_measure: MDA tox: 50% tox. at (μM) av (µM)

compound | operator_symbol | assay_value
CN1CCN(CCCNC(=O)c2cccc(Nc3cccc(C(=O)Nc4ccncc4)c3)c2)CC1 | = | 58
O=C(Nc1ccncc1)c1cccc(Nc2cccc(S(=O)(=O)NCCN3CCCCC3)c2)c1 | = | 45
CN1CCN(CCCNC(=O)c2ccnc(Nc3cc(C(=O)Nc4ccncc4)ccn3)c2)CC1 | > | 100
CCN(CC)CCCNC(=O)c1ccnc(Nc2cccc(C(=O)Nc3ccncn3)c2)c1 | ≥ | 80
O=C(NCCCN1CCOCC1)c1cccc(Nc2ccc(C(=O)Nc3ccncc3)cc2)c1 | = | 70
CN1CCN(CCCNC(=O)c2cccc(Nc3cc(C(=O)Nc4ccncc4)ccn3)c2)CC1 | ≥ | 100
O=C(NCCCN1CCOCC1)c1cccc(Nc2cc(C(=O)Nc3ccncc3)ccn2)c1 | = | 80
CCN(CC)CCCNC(=O)c1cccc(Nc2cccc(C(=O)Nc3ccncc3)c2)c1 | = | 46
CCN(CC)CCCNC(=O)c1cccc(Nc2ccc(C(=O)Nc3ccncc3)cc2)c1 | = | 93
CN1CCN(CCCNC(=O)c2cccc(Nc3cccc(C(=O)N(C)c4ccncc4)c3)c2)CC1 | > | 100
CCN(CC)CCCNC(=O)c1cccc(Nc2cc(C(=O)Nc3ccncc3)ccn2)c1 | > | 100
CCN(CC)CCCNS(=O)(=O)c1cccc(Nc2cc(C(=O)Nc3ccncc3)ccn2)c1 | > | 100
O=C(NCCCN1CCCCC1)c1cccc(Nc2cccc(C(=O)Nc3ccncn3)c2)c1 | = | 33
CCN(CC)CCCNC(=O)c1ccnc(Nc2cccc(C(=O)Nc3ccncc3)c2)c1 | = | 118
CCN(CC)CCCNC(=O)c1cccc(Nc2cccc(/C=C/c3ccncc3)c2)c1 [Compound C88, reference compound] | = | 10
CCN(CC)CCCNC(=O)c1cccc(Nc2cccc(C(=O)N(C)c3ccncc3)c2)c1 | > | 100

----------
- Test system: human PBMC
- assay_protocol: Toxicity assay under normal cell culture conditions (MTS), PBMC
- Type: cell-based
- conditions_used: human PBMC, RPMI+10% FBS+IL-2, 72 h incubation, MTS
Here the recorded PBMC tox.: 50% tox. at (μM) av is given for each entry.
outcome_measure: PBMC tox.: 50% tox. at (μM) av (µM)

compound | outcome_measure | operator_symbol | assay_value
O=C(NCCCN1CCCC1)c1cccc(Nc2cccc(C(=O)Nc3ccncn3)c2)c1 | PBMC tox.: 50% tox. at (μM) av | = | 49
CN(C(=O)c1cccc(Nc2cccc(S(=O)(=O)NCCCN3CCOCC3)c2)c1)c1ccncc1 | PBMC tox.: 50% tox. at (μM) av | > | 70
CN1CCN(CCCNC(=O)c2cccc(Nc3cccc(C(=O)Nc4ccncc4)c3)c2)CC1 | PBMC tox.: 50% tox. at (μM) av | = | 100
CN(C(=O)c1cccc(Nc2cccc(S(=O)(=O)NCCCN3CCCCC3)c2)c1)c1ccncc1 | PBMC tox.: 50% tox. at (μM) av | ≥ | 100
CCN(CC)CCCNC(=O)c1cccc(Nc2ccc(C(=O)Nc3ccncc3)cc2)n1 | PBMC tox.: 50% tox. at (μM) av | = | 58
O=C(Nc1ccncc1)c1ccc(Nc2cccc(S(=O)(=O)NCCN3CCCC3)c2)cc1 | PBMC tox.: 50% tox. at (μM) av | = | 10
O=C(NCCCN1CCCC1)c1cccc(Nc2cc(C(=O)Nc3ccncc3)ccn2)c1 | PBMC tox.: 50% tox. at (μM) av | > | 100
